Experiment: Compactability of sugar alcohols compressed alone
Assay type: physicochemical
Conditions: tablets of sugar alcohol alone; FIG. 19
property measured: compactability (slope of compression force versus crushing strength)

> print(dat)
                                 mol.smiles                       val
1  OC[C@@H](O)[C@@H](O[C@H]1O[C@H](CO)[C@@H](O)[C@H](O)[C@H]1O)[C@H](O)[C@@H](O)CO  very poor compactability
2    OC[C@@H](O)[C@@H](O)[C@H](O)[C@H](O)CO  very poor compactability
3            OC[C@@H](O)[C@H](O)[C@@H](O)CO  very poor compactability
